assayedTarget: Recombinant human Cbl-b (aa 36-427) (Homo sapiens, UniProt Q13191)
Sequence (Q13191 36-427): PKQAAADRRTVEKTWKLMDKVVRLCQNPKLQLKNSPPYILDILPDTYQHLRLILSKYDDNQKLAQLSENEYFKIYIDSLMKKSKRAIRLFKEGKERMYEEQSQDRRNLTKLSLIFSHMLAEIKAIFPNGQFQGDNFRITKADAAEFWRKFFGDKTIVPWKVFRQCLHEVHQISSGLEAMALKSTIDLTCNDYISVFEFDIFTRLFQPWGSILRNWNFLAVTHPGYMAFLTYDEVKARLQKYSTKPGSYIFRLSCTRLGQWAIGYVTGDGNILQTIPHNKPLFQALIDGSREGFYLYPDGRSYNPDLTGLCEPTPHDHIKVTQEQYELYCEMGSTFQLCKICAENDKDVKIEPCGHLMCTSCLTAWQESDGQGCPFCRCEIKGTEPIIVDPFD
testDescription: Cbl-b Biochemical Assay (TR-FRET)
cond: read-out: TR-FRET hCbl-b IC50
pIC50: −log10 of the molar value.
pIC50 listing for selected molecules.

molecule	pIC50
C[C@H]1CCC[C@@H](NCc2cc(C(F)(F)F)c3oc(-c4cccc(-c5ccc(F)cc5-c5nncn5C)c4)nc3c2)C1 (racemic)	> 6.70
COCC(C)(C)NCc1cc(C)c2oc(-c3cc(-c4ccc(F)cc4-c4nncn4C)cc(C4CC4)n3)nc2c1	> 6.70
Cn1cnnc1-c1cc(F)ccc1-c1cccc(-c2nc3cc(C(=O)NO)cc(C(F)(F)F)c3o2)c1	> 6.70
Cn1cnnc1-c1cc(F)ccc1-c1cccc(-c2nc3cc(CN4CCC5(CC4)CC5)cc(C(F)(F)F)c3[nH]2)c1	> 6.70
Cn1cnnc1CC1(c2cccc(-c3nc4cccc(Br)c4[nH]3)c2)COC1	4.30 to 5.00
CCCNCc1cc(C(F)(F)F)c2oc(-c3cccc(-c4ccc(F)cc4-c4nncn4C)c3)nc2c1	> 6.70
Cn1cnnc1-c1ccccc1-c1cc(-c2nc3cc(CN4CCC5(CC5)C4)cc(C(F)(F)F)c3o2)nc(C2CC2)c1	> 6.70
COCC1(CNCc2cc(C(F)(F)F)c3oc(-c4cccc(-c5ccc(F)cc5-c5nncn5C)c4)nc3c2)CCCC1	> 6.70
Cc1c(F)c(CO)cc2nc(-c3cc(-c4ccc(F)cc4-c4nncn4C)cc(C4CC4)n3)oc12	6.00 to 6.70
CO[C@@H](C)CNCc1cc(F)c2oc(-c3cc(-c4ccc(F)cc4-c4nncn4C)cc(C4CC4)n3)nc2c1	> 6.70
Cn1cnnc1-c1cc(Cl)ccc1-c1cccc(-c2nc3cc(CO)ccc3o2)c1	5.00 to 6.00
C[C@H]1CCCN(Cc2cc(C(F)(F)F)c3oc(-c4cccc([C@]5(c6nncn6C)C[C@@H](C)C5)c4)nc3c2)C1	> 6.70
Cc1cc(CNCC2CCC2)cc2nc(-c3cc(-c4ccc(F)cc4-c4nncn4C)cc(C4CC4)n3)oc12	> 6.70
COC(=O)c1cc(C(F)(F)F)c2oc(-c3cccc(-c4ccc(F)cc4-c4nncn4C)c3)nc2c1	6.00 to 6.70
Cn1cnnc1-c1cc(F)ccc1-c1cc(-c2nc3cc(C(C)(C)O)c(F)c(F)c3o2)nc(C2CC2)c1	6.00 to 6.70

###

assayedTarget: Recombinant human c-Cbl (aa 47-435) (Homo sapiens)
Sequence (P22681 47-435): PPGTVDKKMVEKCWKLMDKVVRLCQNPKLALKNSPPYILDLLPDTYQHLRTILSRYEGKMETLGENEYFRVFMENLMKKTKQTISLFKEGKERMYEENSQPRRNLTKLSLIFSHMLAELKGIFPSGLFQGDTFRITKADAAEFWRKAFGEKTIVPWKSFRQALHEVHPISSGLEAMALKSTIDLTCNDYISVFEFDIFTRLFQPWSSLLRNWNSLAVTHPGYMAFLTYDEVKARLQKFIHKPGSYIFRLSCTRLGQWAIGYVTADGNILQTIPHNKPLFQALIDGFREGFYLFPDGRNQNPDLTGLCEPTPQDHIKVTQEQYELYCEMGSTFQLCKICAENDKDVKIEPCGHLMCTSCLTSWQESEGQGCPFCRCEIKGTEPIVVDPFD
testDescription: c-Cbl Biochemical Assay (TR-FRET)
cond: hc-Cbl Biochemical Assay (TR-FRET); read-out: TR-FRET hcCbl IC50
Reported IC50 values for a set of compounds

compoundSmiles	IC50
COc1cc(CNC[C@@H]2CCCO2)cc2nc(-c3cccc(-c4ccc(F)cc4-c4nncn4C)c3)oc12	< 200 nM
Cn1cnnc1-c1cc(F)ccc1-c1cccc(-c2nc3cc(CNC[C@@H]4CCC(=O)N4)cc(C(F)(F)F)c3o2)c1	< 200 nM
COCC(C)(C)NCc1cc(C)c2oc(-c3cc(-c4ccc(F)cc4-c4nncn4C)cc(C4CC4)n3)nc2c1	1000 to 10000 nM
Cn1cnnc1-c1cc(F)ccc1-c1cccc(-c2nc3cc(C(=O)NO)cc(C(F)(F)F)c3o2)c1	1000 to 10000 nM
C[C@H](O)CNCc1cc(F)c2oc(-c3cccc(-c4ccc(F)cc4-c4nncn4C)c3)nc2c1	< 200 nM
COCCNCc1cc(C)c2oc(-c3cccc(-c4ccc(F)cc4-c4nncn4C)c3)nc2c1	200 to 1000 nM
COc1cc(CO)cc2nc(-c3cccc([C@]4(c5nncn5C)C[C@@H](C)C4)c3)oc12	1000 to 10000 nM
Cn1cnnc1-c1cc(F)ccc1-c1cccc(-c2nc3cc(CN[C@@H]4CCC[C@@H]4O)cc(C#N)c3o2)c1	< 200 nM
